Test system: A. fumigatus ATCC MYA-3626
ASSAY_METHOD_TEXT: Checkerboard broth microdilution (CLSI)
Format: cell-based
ASSAY_SETUP: Aspergillus fumigatus, single agent; isolate ATCC MYA-3626; read-out: MIC
MEASUREMENT_TYPE: MIC (mg/L)

COMPOUND: C[C@@H]1[C@H](O)[C@@H](C)/C=C/C=C/C=C/C=C/C=C/C=C/C=C/[C@H](O[C@@H]2O[C@H](C)[C@@H](O)[C@H](N)[C@@H]2O)C[C@@H]2O[C@](O)(C[C@@H](O)C[C@@H](O)[C@H](O)CC[C@@H](O)C[C@@H](O)CC(=O)O[C@H]1C)C[C@H](O)[C@H]2C(=O)O [AmB, Amphotericin B]
MEASUREMENT_TYPE: MIC
DISPLAY_UNIT: mg/L
REPORTED_VALUE: 1

P = CC(=O)N1CCN(c2ccc(OCC3COC(Cn4ccnc4)(c4ccc(Cl)cc4Cl)O3)cc2)CC1 (stereo not shown) [Ketoconazole, ketoconazole]
Q = C[C@@H](c1ncncc1F)[C@](O)(Cn1cncn1)c1ccc(F)cc1F [Voriconazole, voriconazole]
Q: Which is greater in MIC, the first item P or the second item Q ? Output the label that corresponds to your choice.
A: P
(P: 8 mg/L, Q: 0.5 mg/L)

---

ASSAY_METHOD_TEXT: UV-Vis and PCA based sterol sponge binding assay
ASSAY_SETUP: apparent KD; sterol sponge aggregates in vitro; read-out: KD,erg
Consider the following molecules and their measured pKd readings.
// scale note: pKd = -log10(conc_M); give the bare number

MOLECULE: C[C@@H]1[C@H](O)[C@@H](C)/C=C/C=C/C=C/C=C/C=C/C=C/C=C/[C@H](OC2O[C@H](C)[C@@H](O)[C@H](N)[C@H]2O)CC2O[C@](O)(C[C@@H](O)C[C@@H](O)[C@H](O)CC[C@@H](O)C[C@@H](O)CC(=O)O[C@H]1C)C[C@H](O)[C@H]2C(=O)O (stereo partly drawn) [C2′epiAmB, C2′epi amphotericin B]
MEASUREMENT_TYPE: pKd
REPORTED_VALUE: 6.82

Shift focus to the following entry.
Q: Look up pKd for this molecule: C[C@@H]1[C@H](O)[C@@H](C)/C=C/C=C/C=C/C=C/C=C/C=C/C=C/[C@H](O[C@@H]2O[C@H](C)[C@@H](O)[C@H](N)[C@@H]2O)C[C@@H]2O[C@](O)(C[C@@H](O)C[C@@H](O)[C@H](O)CC[C@@H](O)C[C@@H](O)CC(=O)O[C@H]1C)C[C@H](O)[C@H]2C(=O)O
A: 6.92

---

Consider the following compounds and their measured MIC readings.
Tested on: A. fumigatus 1077391
ASSAY_METHOD_TEXT: Checkerboard broth microdilution (CLSI)
Format: cell-based
ASSAY_SETUP: Aspergillus fumigatus; single agent; isolate 1077391
Lab book: enter the figure in µg/mL, no units written.

Example compounds with recorded MIC:
COMPOUND: C[C@@H]1[C@H](O)[C@@H](C)/C=C/C=C/C=C/C=C/C=C/C=C/C=C/[C@H](O[C@@H]2O[C@H](C)[C@@H](O)[C@H](N)[C@@H]2O)C[C@@H]2O[C@](O)(C[C@@H](O)C[C@@H](O)[C@H](O)CC[C@@H](O)C[C@@H](O)CC(=O)O[C@H]1C)C[C@H](O)[C@H]2C(=O)O
TARGET_DESC: A. fumigatus 1077391
MEASUREMENT_TYPE: MIC
REPORTED_VALUE: 1
--
COMPOUND: C[C@@H](c1ncncc1F)[C@](O)(Cn1cncn1)c1ccc(F)cc1F
TARGET_DESC: A. fumigatus 1077391
MEASUREMENT_TYPE: MIC
REPORTED_VALUE: 2

Q: Recorded MIC for C[C@@H]1[C@H](O)[C@@H](C)/C=C/C=C/C=C/C=C/C=C/C=C/C=C/[C@H](OC2O[C@H](C)[C@@H](O)[C@H](N)[C@H]2O)CC2O[C@](O)(C[C@@H](O)C[C@@H](O)[C@H](O)CC[C@@H](O)C[C@@H](O)CC(=O)O[C@H]1C)C[C@H](O)[C@H]2C(=O)O (stereo partly drawn) [C2′epiAmB, C2′epi amphotericin B] with A. fumigatus 1077391, please?
A: 4

---

Test system: C. krusei 975691
ASSAY_METHOD_TEXT: Checkerboard broth microdilution (CLSI)
Assay type: cell-based
ASSAY_SETUP: Pichia kudriavzevii, single agent; isolate 975691; read-out: MIC
MEASUREMENT_TYPE: MIC (µg/mL)

Example molecules with recorded MIC:
MOLECULE: C[C@@H]1[C@H](O)[C@@H](C)/C=C/C=C/C=C/C=C/C=C/C=C/C=C/[C@H](OC2O[C@H](C)[C@@H](O)[C@H](N)[C@H]2O)CC2O[C@](O)(C[C@@H](O)C[C@@H](O)[C@H](O)CC[C@@H](O)C[C@@H](O)CC(=O)O[C@H]1C)C[C@H](O)[C@H]2C(=O)O (stereo partly drawn) [C2′epiAmB, C2′epi amphotericin B]
MEASUREMENT_TYPE: MIC
DISPLAY_UNIT: µg/mL
REPORTED_VALUE: 2

MOLECULE: C[C@@H]1[C@H](O)[C@@H](C)/C=C/C=C/C=C/C=C/C=C/C=C/C=C/[C@H](O[C@@H]2O[C@H](C)[C@@H](O)[C@H](N)[C@@H]2O)C[C@@H]2O[C@](O)(C[C@@H](O)C[C@@H](O)[C@H](O)CC[C@@H](O)C[C@@H](O)CC(=O)O[C@H]1C)C[C@H](O)[C@H]2C(=O)O
MEASUREMENT_TYPE: MIC
DISPLAY_UNIT: µg/mL
REPORTED_VALUE: 1

1 = CC(=O)N1CCN(c2ccc(OCC3COC(Cn4ccnc4)(c4ccc(Cl)cc4Cl)O3)cc2)CC1 (stereo not shown)
2 = C[C@@H](c1ncncc1F)[C@](O)(Cn1cncn1)c1ccc(F)cc1F
Q: Between the entries labeled 1 and 2 , whose measured MIC is lower? Output the label that corresponds to your choice.
A: 1
